# protein stability index listing for each entry below
assay: protein stability index of a GFP-peptide fusion (GPS, HEK-293T) (PSI 1-6); higher = more stable; conditions: treatment: DMSO; c terminus: a fixed tail appended;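 also: 24-mer peptide tiles fused after GFP, lentivirally expressed, FACS-sorted into six equal bins by GFP/DsRed ratio, decoded by Illumina sequencing, PSI is the read-weighted mean bin number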

# annotated cases, reported protein stability index shown
HQADLEVANRHGHTCLMISCYKGH [FEM1A]
2.73
MFFTCGPNEAMVVSGFCRSPPVMV [FLOT1]
2.93
MPQYILREFKVTDARDGQSRTVRQ [PTPRD]
3.75

Quick note, protein stability index for ENLSVPVIGALLRFNQAILVSRHD [LPCAT4] landed at 2.43

Quick note, protein stability index for DEMLSYLPGGTTGLQLPSTLPVSG [TFE3] landed at 3.95

Quick note, protein stability index for GGDKLETMPLYLEDDIRPDIKDDI [SCD] landed at 4.9

Quick note, protein stability index for LHASTVKRYGLGAHRGRLNIQAGI [CPXM2] landed at 2.52

Quick note, protein stability index for HSDPEESFARDLPDFPSINMDPAG [RETREG3] landed at 5.19

Quick note, protein stability index for MYDLPKKEDALLYQSKGYNDDYYE [EMD] landed at 4.27

Quick note, protein stability index for IFPRLSFKDKSTYIESSTKVYDDM [CLPTM1] landed at 3.03

Quick note, protein stability index for FATPEREMRISESAASGARFPLDS [PCDHGC5] landed at 4.44

Quick note, protein stability index for PADFSLGSLPGPGQTSGAREPPQA [VENTX] landed at 5.12

Quick note, protein stability index for LAVYIDKVRSLETENSALQLQVTE [LMNB1] landed at 2.25

Quick note, protein stability index for EACMTHLHYKWIPVEDSHTADISS [DUSP5] landed at 3.53

src = the supplement of paper PMC10567573
